Where do these numbers come from? They come from patent EP4592286A1.

TEST TARGET: JAK2 (Homo sapiens)
Sequence (O60674 whole entry): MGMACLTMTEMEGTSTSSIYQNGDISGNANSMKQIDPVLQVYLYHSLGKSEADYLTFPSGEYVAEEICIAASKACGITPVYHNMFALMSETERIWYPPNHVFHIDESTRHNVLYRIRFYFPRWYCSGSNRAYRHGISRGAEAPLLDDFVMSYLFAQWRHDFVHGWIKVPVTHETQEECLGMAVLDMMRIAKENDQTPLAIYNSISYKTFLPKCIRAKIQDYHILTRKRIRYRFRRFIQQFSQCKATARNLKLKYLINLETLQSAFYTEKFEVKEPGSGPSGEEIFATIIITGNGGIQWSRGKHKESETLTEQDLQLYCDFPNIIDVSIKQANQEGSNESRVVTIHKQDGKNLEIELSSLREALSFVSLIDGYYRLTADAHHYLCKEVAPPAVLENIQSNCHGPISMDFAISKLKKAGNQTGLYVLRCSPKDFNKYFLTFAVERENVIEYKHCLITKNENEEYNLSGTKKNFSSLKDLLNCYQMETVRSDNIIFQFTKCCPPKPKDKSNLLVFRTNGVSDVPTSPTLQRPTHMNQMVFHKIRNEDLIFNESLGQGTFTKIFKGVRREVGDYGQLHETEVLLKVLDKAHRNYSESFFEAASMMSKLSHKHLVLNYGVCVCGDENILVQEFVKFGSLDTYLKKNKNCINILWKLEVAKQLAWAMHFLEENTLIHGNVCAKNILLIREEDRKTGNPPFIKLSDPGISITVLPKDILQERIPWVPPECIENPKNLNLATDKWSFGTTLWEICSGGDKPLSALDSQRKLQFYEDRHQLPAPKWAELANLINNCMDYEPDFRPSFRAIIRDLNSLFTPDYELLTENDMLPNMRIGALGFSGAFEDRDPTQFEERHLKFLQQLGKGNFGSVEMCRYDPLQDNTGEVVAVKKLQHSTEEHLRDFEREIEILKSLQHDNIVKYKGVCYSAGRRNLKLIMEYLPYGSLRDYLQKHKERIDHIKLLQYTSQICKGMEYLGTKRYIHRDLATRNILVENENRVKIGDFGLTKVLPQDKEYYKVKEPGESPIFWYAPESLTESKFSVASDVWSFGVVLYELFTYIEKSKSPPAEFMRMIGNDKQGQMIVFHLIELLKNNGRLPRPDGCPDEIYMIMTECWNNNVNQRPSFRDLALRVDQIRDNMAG
TEST SUMMARY: experiment of inhibiting kinase activity (Caliper mobility shift assay), JAK2
Format: biochemical
RECORDED CONDITIONS: at 100 nM; read-out: inhibition rate JAK2
Kindly supply the reported inhibition at 0.1 µM values for the records listed here.

Asked: Suppose we examine the compound CN1CCOCCOc2ccc(Nc3ncc(F)c(-c4ccc(C(=O)NCC#N)cc4)n3)cc2OCC1 ; what inhibition at 0.1 µM value has been reported?
Given back: > 80%

Asked: Suppose we examine the compound CCS(=O)(=O)N1CC(CC#N)(n2cc(-c3nc(Nc4ccc5c(c4)OCCN(C)CCO5)ncc3F)cn2)C1 ; what inhibition at 0.1 µM value has been reported?
Given back: > 80%

Asked: Suppose we examine the compound CN1CCOc2ccc(Nc3nc(Nc4cccc(S(=O)(=O)NC(C)(C)C)c4)c4cc[nH]c4n3)cc2OCC1 ; what inhibition at 0.1 µM value has been reported?
Given back: 40 to 79%

Asked: Suppose we examine the compound CN1CCOc2ccc(Nc3ncc(F)c(-c4cnn(C(CC#N)C5CCCC5)c4)n3)cc2OCC1 (centres unmarked) ; what inhibition at 0.1 µM value has been reported?
Given back: > 80%

Asked: Suppose we examine the compound CN1CCOCCOc2cc(Nc3nc(-c4cnn(C(CC#N)C5CCCC5)c4)c4cc[nH]c4n3)ccc2OCC1 (centres unmarked) ; what inhibition at 0.1 µM value has been reported?
Given back: > 80%
